Would you mind telling me the reported Ratio caecum / ileum (concentration) of each entry?
- assay overview: UPLC-MS/MS quantification of berberine and metabolites in ileal and caecal content
- Assay type: in vivo, Ross 308 broiler chickens
- condition context: 0.5 g berberine/kg feed, 21 days
Numbers only.

Examples with their reported Ratio caecum / ileum (concentration) follow.
- compound: "COc1cc2c(cc1O)-c1cc3ccc(OC)c(OC)c3c[n+]1CC2"
  Ratio caecum / ileum (concentration): 0.32
- compound: "COc1ccc2cc3[n+](cc2c1OC)CCc1cc(O)c(O)cc1-3"
  Ratio caecum / ileum (concentration): 30.48
- compound: "COc1ccc2cc3[n+](cc2c1OC)CCc1cc2c(cc1-3)OCO2 [Berberine, Berberine chloride]"
  Ratio caecum / ileum (concentration): 0.14
- compound: "COc1cc2c(cc1O)CC[n+]1cc3c(OC)c(OC)ccc3cc1-2 [Jatrorrhizine, Jatrorrhizine chloride]"
  Ratio caecum / ileum (concentration): 0.49
- compound: "COc1ccc2cc3[n+](cc2c1O)CCc1cc2c(cc1-3)OCO2 [Berberrubine, berberrubine chloride]"
  Ratio caecum / ileum (concentration): 29.98

For each of the compounds below, note its Ratio caecum / ileum (concentration).
1. COc1c(O)ccc2cc3[n+](cc12)CCc1cc2c(cc1-3)OCO2
2. COc1ccc2c(c1OC)CN1CCc3cc4c(cc3C1=C2)OCO4 [Dihydroberberine, dihydroberberine]
3. COc1ccc2cc3n(c(=O)c2c1OC)CCc1cc2c(cc1-3)OCO2

## Result
29.03
0.27
1.48
